# tgt: GAL4 DBD-CfEcR(DEF)/VP16AD-MmRXRE (Choristoneura fumiferana, UniProt O77240)
# assay_name: 13B3 Assay (CHO stable cell line, luciferase reporter)
# reported_conditions: read-out: 13B3 EC50; CHO 13B3 stable cell line, luciferase reporter, 48 h; average of two wells
Please respond with reported EC50 for every item in the list.

Item under review: CC(=O)c1cccc(C(=O)NN(C(=O)c2cc(C)cc(C)c2)C(C)(C)C)c1C . Reported EC50? 37900 nM

For the molecule shown here, CCc1c(C(=O)NN(C(=O)c2ccccc2OC)C(C)(C)C)ccc2c1OCCO2 [RG-115244] , give the reported EC50. 369 nM

Give the measured EC50 of CCc1ccc(C(=O)NN(C(=O)c2cc(C)cc(Cl)c2)C(C)(C)C)cc1 . 327 nM

Request the reported EC50 associated with Cc1c(C(=O)NN(C(=O)c2cc(F)c(F)cc2F)C(C)(C)C)ccc2c1CCCO2 2250 nM

Which EC50 reading was recorded for the molecule Cc1cc(C)cc(C(=O)N(NC(=O)c2ccc3c(c2)OC(C)O3)C(C)(C)C)c1 (centres unmarked) ? 794 nM

Returns the measured EC50 for the input molecule. Input: COc1cc(C(=O)N(NC(=O)c2ccc3c(c2C)CCCO3)C(C)(C)C)cc(OC)c1C 303 nM

// returns reported EC50 for input CCc1c(OC)cccc1C(=O)NN(C(=O)c1cc(OC)c(O)c(OC)c1)C(C)(C)C > 50000 nM

Using the record for COc1ccccc1C(=O)N(NC(=O)c1ccc2c(c1C)CCCO2)C(C)(C)C , report its EC50. 930 nM

====

# tgt: GAL4 DBD (1-147)-CfEcR(DEF)/VP16AD-βRXREF-LmUSPEF (Choristoneura fumiferana)
# assay_name: cell-based
# reported_conditions: 3.3 uM ligand; RLU ligand treated / RLU DMSO treated cells; average of two wells
# Protocol: GAL4 DBD (1-147)-CfEcR(DEF)/VP16AD-βRXREF-LmUSPEF: […] Luciferase reporter gene expression was measured 48 h after cell treatment using Bright-Glo™ Luciferase Assay System from Promega (E2650). Luminescence was detected at room temperature using a Dynex MLX microtiter plate luminometer. Each assay was conducted in two separate wells, and the two values were averaged. Fold inductions were calculated by dividing relative light units (“RLU”) in ligand treated cells with RLU in DMSO treated cells. […]
Threshold rule: Fold Induction, 27-63 Assay, 3.3 uM greater than or equal to 1000 is fulfilled; below that, not fulfilled.

Can CCc1c(OC)cccc1C(=O)NN(C(=O)c1cc(C)cc(C)c1)C(CC)C(C)(C)C (centres unmarked) be said to have Fold Induction, 27-63 Assay, 3.3 uM at or above 1000? fulfilled

Hello, I need to know if CCc1c(OC)cccc1C(=O)NN(C(=O)c1cc(F)c(Cl)cc1Cl)C(C)(C)C has measured Fold Induction, 27-63 Assay, 3.3 uM not below 1000. Thanks! not fulfilled

Identify whether the reported Fold Induction, 27-63 Assay, 3.3 uM of the following compound is 1000 or greater: CCc1c(C(=O)NN(C(=O)c2ccc(Cl)cc2OC)C(C)(C)C)ccc2c1OCO2 fulfilled

Does the reported Fold Induction, 27-63 Assay, 3.3 uM for CCc1c(C(=O)NN(C(=O)c2cc(C)cc(C)c2)C(C)(C)C)ccc2c1OC(C)O2 (centres unmarked) fall at or above the 1000 mark? fulfilled

Entry COc1ccc(Cl)cc1C(=O)N(NC(=O)c1ccc2c(c1C)CCCO2)C(C)(C)C : is its Fold Induction, 27-63 Assay, 3.3 uM no less than 1000? fulfilled

Is it the case that CC(C)(C)N(NC(=O)c1ccc2c(c1)OCO2)C(=O)c1ccc(F)cc1Cl has Fold Induction, 27-63 Assay, 3.3 uM reaching or exceeding 1000? not fulfilled

Given Cc1c(C(=O)NN(C(=O)c2ccc(F)cc2)C(C)(C)C)ccc2c1OCO2 , state whether its Fold Induction, 27-63 Assay, 3.3 uM is at least 1000. not fulfilled

Evaluate CCc1ccc(C(=O)NN(C(=O)c2cc(C)cc(C)c2)C(c2ccccc2)C(C)(C)C)cc1 (centres unmarked) : Fold Induction, 27-63 Assay, 3.3 uM at minimum 1000? fulfilled

====

# tgt: Bombyx mori EcR (VP16 fusion, CVBE switch construct) (Bombyx mori, UniProt P49881)
# assay_name: Z3 Assay (HEK-293 cells with CVBE and 6XEcRE LacZ, β-galactosidase reporter)
# reported_conditions: read-out: Z3 assay EC50; HEK-293 Z3 cells, β-galactosidase reporter; average of two wells
Lab note: anything with EC50 below 3000 nM is marked YES; values at 3000 nM or higher are marked NO.

I'd appreciate it if you could check whether CCc1c(OC)cccc1C(=O)NN(C(=O)c1c(F)cccc1F)C(C)(C)C has EC50 smaller than 3000 nM. NO

For this compound, is EC50 lower than 3000 nM? CCc1c(OC)cccc1C(=O)NN(C(=O)c1cc(OC)c(OC(C)=O)c(OC)c1)C(C)(C)C YES

Lab note: EC50 threshold 3000 nM. Does this compound come in strictly under it? Cc1c(C(=O)NN(C(=O)c2ccc(F)cc2)C(C)(C)C)ccc2c1OCO2 YES

Lab log: compare recorded EC50 with 3000 nM; is it strictly lower for CCc1ccccc1C(=O)N(NC(=O)c1cccc(OC)c1C)C(C)(C)C ? YES

Determine whether this compound shows EC50 lower than 3000 nM (ties excluded): CCc1ccc(C(=O)NN(C(=O)c2cc(F)c(F)c(F)c2)C(C)(C)C)c(F)c1 YES

Is the reported EC50 for COc1ccc(C(=O)NN(C(=O)c2ccc(F)cc2Cl)C(C)(C)C)cc1 strictly below 3000 nM? NO

Below 3000 nM on EC50? Entry Cc1c(C(=O)NN(C(=O)c2ccc(F)cc2)C(C)(C)C)ccc2c1OCCO2 YES

Does CC(C)(C)N(NC(=O)c1ccc2c(c1)OC(F)(F)O2)C(=O)c1ccccc1[N+](=O)[O-] have EC50 strictly under 3000 nM? NO

====

# tgt: Bombyx mori EcR (VP16 fusion, CVBE switch construct) (Bombyx mori)
# Sequence (P49881 86-606): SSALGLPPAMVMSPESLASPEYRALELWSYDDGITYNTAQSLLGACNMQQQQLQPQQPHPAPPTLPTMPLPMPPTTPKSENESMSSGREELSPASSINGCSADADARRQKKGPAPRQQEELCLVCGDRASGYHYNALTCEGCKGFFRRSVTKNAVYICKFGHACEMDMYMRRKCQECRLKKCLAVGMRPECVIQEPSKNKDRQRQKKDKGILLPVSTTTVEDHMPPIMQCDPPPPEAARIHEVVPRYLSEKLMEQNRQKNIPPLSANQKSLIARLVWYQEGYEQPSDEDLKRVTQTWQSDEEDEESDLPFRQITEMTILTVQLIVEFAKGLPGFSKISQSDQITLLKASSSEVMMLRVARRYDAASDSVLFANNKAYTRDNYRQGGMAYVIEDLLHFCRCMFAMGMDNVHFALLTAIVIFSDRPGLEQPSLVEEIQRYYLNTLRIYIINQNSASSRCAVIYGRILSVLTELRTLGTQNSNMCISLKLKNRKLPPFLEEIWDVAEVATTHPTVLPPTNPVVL
# Sequence (P19793 1-462 partner): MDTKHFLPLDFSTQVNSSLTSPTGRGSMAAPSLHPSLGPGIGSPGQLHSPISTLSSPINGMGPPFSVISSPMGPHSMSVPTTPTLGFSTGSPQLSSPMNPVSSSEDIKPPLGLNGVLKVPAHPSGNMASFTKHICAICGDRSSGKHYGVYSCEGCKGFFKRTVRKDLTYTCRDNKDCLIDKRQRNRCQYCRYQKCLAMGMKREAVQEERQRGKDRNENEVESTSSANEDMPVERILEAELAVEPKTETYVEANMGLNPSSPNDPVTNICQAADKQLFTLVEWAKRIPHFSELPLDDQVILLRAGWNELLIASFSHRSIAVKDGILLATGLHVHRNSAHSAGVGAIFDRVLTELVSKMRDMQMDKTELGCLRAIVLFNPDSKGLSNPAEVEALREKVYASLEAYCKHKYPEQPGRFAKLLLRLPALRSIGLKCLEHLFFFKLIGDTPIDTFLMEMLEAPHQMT
# assay_name: Z3 Assay (HEK-293 cells with CVBE and 6XEcRE LacZ, β-galactosidase reporter)
# reported_conditions: read-out: Z3 assay EC50; HEK-293 Z3 cells, β-galactosidase reporter; average of two wells
# Description: Dr. F. Gage provided a population of stably transformed cells containing CVBE and 6XEcRE as described in Suhr, S. T., Gil, E. B., Senut M. C., Gage, F. H. (1998) Proc. Natl. Acad. Sci. USA 95, 7999-804. […] Dilution cloning was used to isolate individual clones. […] Individual clones were evaluated based on their response in the presence and absence of test ligands. […]
result_type: EC50 (nM)
Numeric answer only, unit nM assumed.

Query: EC50; subject: COc1ccc(C)cc1C(=O)N(NC(=O)c1cccc(OC)c1C)C(C)(C)C 174

Which EC50 value belongs to CCc1c(OC)cccc1C(=O)NN(C(=O)c1cc(F)cc(C(F)(F)F)c1)C(C)(C)C ? 501

Could you share which EC50 value was measured for Cc1c(Cl)cccc1C(=O)NN(C(=O)c1cccc(Cl)c1)C(C)(C)C ? 1740

Please give the measured EC50 for this molecule: CCCC(N(NC(=O)c1cccc(OC)c1CC)C(=O)c1cc(C)cc(C)c1)C(C)(C)C (stereo not shown) 45
